Target under test: UniProt:P34972
Sequence (P34972 whole entry): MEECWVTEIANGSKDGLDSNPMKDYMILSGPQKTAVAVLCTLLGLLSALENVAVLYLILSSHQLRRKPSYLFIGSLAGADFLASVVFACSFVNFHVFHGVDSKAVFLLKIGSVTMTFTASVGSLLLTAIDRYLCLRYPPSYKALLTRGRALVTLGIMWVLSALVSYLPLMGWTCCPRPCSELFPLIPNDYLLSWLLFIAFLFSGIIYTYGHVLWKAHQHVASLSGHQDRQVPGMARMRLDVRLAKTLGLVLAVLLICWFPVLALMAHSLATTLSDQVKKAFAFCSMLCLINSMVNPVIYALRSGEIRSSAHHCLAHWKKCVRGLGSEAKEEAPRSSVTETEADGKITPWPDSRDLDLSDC
Assay comment: CB2 cAMP antagonist assay (LANCE Ultra cAMP kit)
Test conditions: CB2-CHO cells stably expressing the CB2 receptor; forskolin and agonist CP55940 at EC90
Reported metric: IC50

Recorded results for 2 molecules are shown here.
[[record]]
molecule = "Cn1c(=O)c2c(nc(-c3ccccc3Cl)n2-c2ccc(Cl)cc2)n(Cc2ccc(C(=O)NCCO)cc2)c1=O"
result = "≥ 5 µM"

[[record]]
molecule = "CC(c1ccc(C(N)=O)cc1)n1c(=O)n(C[C@@H](O)CO)c(=O)c2c1nc(-c1ccccc1Cl)n2-c1ccc(Cl)cc1 (stereo in doubt)"
result = "≥ 5 µM"


// query Recorded IC50 for NC(=O)Cn1c(=O)c2c(nc(-c3ccccc3Cl)n2-c2ccc(Cl)cc2)n(CC2CCOCC2)c1=O , please?
// result ≥ 5 µM

These entries and their values trace back to patent US20220380370A1.
